Test system: Ephrin type-A receptor 4 (Homo sapiens, UniProt P54764)
Sequence (P54764 whole entry, the tested form may be a part): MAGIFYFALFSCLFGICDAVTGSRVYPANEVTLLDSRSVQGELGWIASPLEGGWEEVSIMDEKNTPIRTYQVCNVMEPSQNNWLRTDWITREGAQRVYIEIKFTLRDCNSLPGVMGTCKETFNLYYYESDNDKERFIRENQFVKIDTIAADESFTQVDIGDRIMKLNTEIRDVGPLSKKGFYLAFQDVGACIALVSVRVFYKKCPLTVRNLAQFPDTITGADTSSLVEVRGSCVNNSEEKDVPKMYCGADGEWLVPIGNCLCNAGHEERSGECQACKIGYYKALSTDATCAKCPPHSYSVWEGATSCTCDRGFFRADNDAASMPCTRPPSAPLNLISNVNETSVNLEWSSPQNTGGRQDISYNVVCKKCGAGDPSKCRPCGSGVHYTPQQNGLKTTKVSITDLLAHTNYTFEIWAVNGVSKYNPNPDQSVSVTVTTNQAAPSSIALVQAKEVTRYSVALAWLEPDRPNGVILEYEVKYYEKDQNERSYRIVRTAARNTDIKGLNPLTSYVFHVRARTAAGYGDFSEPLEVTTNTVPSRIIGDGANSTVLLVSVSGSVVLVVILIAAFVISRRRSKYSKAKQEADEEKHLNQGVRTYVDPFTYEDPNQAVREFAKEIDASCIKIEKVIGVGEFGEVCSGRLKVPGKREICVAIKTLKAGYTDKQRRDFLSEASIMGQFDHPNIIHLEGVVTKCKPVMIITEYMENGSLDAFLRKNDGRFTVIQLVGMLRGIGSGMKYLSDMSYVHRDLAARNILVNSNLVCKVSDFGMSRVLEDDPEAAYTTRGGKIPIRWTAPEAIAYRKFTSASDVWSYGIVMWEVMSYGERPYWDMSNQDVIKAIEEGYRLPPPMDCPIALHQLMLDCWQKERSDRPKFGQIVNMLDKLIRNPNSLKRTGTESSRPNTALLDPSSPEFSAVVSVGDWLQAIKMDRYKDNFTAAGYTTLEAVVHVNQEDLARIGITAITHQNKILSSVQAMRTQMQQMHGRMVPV
Measurement protocol: Binding affinity to N-terminal His tagged EphA4 LBD (unknown origin) (29 to 209 residues) expressed in Rosetta-Gami B(DE3) cells by isothermal titration calorimetry
pKd: −log10 of the molar value. Non-standard residues stand in square brackets, D forms with d. Residues, ends and D or L forms follow the SMILES beside them. *: point of attachment. Trp(5-OH) = N[C@@H](Cc1c[nH]c2ccc(O)cc12)C(=O)O; Bip = N[C@@H](Cc1ccc(-c2ccccc2)cc1)C(=O)O; d(hArg) = N=C(N)NCCCC[C@@H](N)C(=O)O; hArg = N=C(N)NCCCC[C@H](N)C(=O)O; NHPh = c1ccc(N*)cc1; GABA = NCCCC(=O)O
Please mark True if the recorded pKd is equal to or greater than 6, and False if it falls below.

Compound	Class name
N=C(N)NCCC[C@H](NC(=O)[C@H](Cc1ccc(-c2ccccc2)cc1)NC(=O)[C@H](Cc1c[nH]c2ccc(O)cc12)NC(=O)CCCN)C(N)=O (H-[GABA][Trp(5-OH)][Bip]R-NH2)	True
N=C(N)NCCCC[C@H](NC(=O)[C@H](Cc1ccc(-c2ccccc2)cc1)NC(=O)[C@H](Cc1c[nH]c2ccccc12)NC(=O)CCN)C(N)=O (HELM PEPTIDE1{[bAla].W.[O=C([C@H](Cc1ccc(-c2ccccc2)cc1)N[*:1])[*:2]].[N=C(N)NCCCC[C@H](N[*:1])C(=O)[*:2]].[am]}$$$$V2.0)	False
N=C(N)NCCCC[C@H](NC(=O)[C@H](Cc1ccc(-c2ccccc2)cc1)NC(=O)[C@H](Cc1c[nH]c2ccc(O)cc12)NC(=O)CCCN)C(=O)NCC(=O)Nc1ccccc1 (H-[GABA][Trp(5-OH)][Bip][hArg]G-NHPh)	True
N=C(N)NCCCC[C@@H](NC(=O)[C@H](Cc1ccc(-c2ccccc2)cc1)NC(=O)[C@H](Cc1c[nH]c2ccccc12)NC(=O)CCCN)C(N)=O (H-[GABA]W[Bip][d(hArg)]-NH2)	True
